Where do these numbers come from? They come from the supplement of paper PMC9112550.

Tested on: Escherichia coli TOP10;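 further: peptides expressed intracellularly from a pBAD plasmid library in pooled LB shake-flask culture, induced with 0.3% L-arabinose, DNA abundance read by NGS, three biological replicates, DESeq2 with apeglm shrinkage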
Assay: shrunken log2 fold change of peptide-encoding DNA abundance (4.5 h post-induction vs induction); higher = less antimicrobial activity (less host growth inhibition)
Settings: time post-induction: 4.5 h; library: site-saturation at positions 5, 18, 19, 20
Entry flag: rule met if shrunken log2 fold change reaches 0.04; rule not met if it does not.

Consider the following illustrative entries.
ordered residues: RRIRHRPPRLPRPRPRPTPGPRP
cat: rule met
--
ordered residues: RRIRPRPPRLPRPRPRPVVQPRP
cat: rule met
--
ordered residues: RRIRGRPPRLPRPRPRPGATPRP
cat: rule met
--
ordered residues: RRIRQRPPRLPRPRPRPMMAPRP
cat: rule met
--
ordered residues: RRIRKRPPRLPRPRPRPGLVPRP
cat: rule met

Quick check, shrunken log2 fold change >= 0.04? RRIRQRPPRLPRPRPRPERLPRP
rule not met

Determine whether this sequence has shrunken log2 fold change no lower than 0.04: RRIRYRPPRLPRPRPRPEALPRP
rule not met

Can RRIRQRPPRLPRPRPRPYHTPRP be said to have shrunken log2 fold change at or above 0.04?
rule not met

Does the reported shrunken log2 fold change for RRIRGRPPRLPRPRPRPNFLPRP fall at or above the 0.04 mark?
rule not met

Please indicate if the recorded shrunken log2 fold change for RRIRDRPPRLPRPRPRPNMMPRP meets or exceeds 0.04.
rule not met

Could you verify whether the entry RRIRIRPPRLPRPRPRPNHEPRP shows shrunken log2 fold change of no less than 0.04?
rule met

Decide: is the reported value of shrunken log2 fold change for RRIRIRPPRLPRPRPRPRSVPRP equal to or greater than 0.04?
rule not met

Say whether RRIRSRPPRLPRPRPRPSVIPRP shows shrunken log2 fold change of 0.04 or more.
rule not met

Record RRIRSRPPRLPRPRPRPLCEPRP ; criterion: shrunken log2 fold change no lower than 0.04. Met?
rule met

Would you say RRIRSRPPRLPRPRPRPFFAPRP shows shrunken log2 fold change at minimum 0.04?
rule met
